- System: THRa:RXRa (NR concentration 90 nM, RXRa partner concentration 90 nM)
- Protocol: PBM binding z-score (relative to random genomic background probes); higher = stronger binding; sequences stand for … in GC…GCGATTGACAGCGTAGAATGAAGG
We use 3 as the dividing line for PBM binding z-score: on or above the line is YES, below is NO.

# Item Sequence, Target, Class Label
data = [
    ("CAAAGTAGGTCAAGGTCAAAGTCGGTTTGTGCCA", "THRa:RXRa (NR concentration 90 nM, RXRa partner concentration 90 nM)", "YES"),
    ("GCTTACGGGTCAAAGGTTACAGCATGAATAGAAT", "THRa:RXRa (NR concentration 90 nM, RXRa partner concentration 90 nM)", "YES"),
    ("CCTGCTAGGTCAATGGTCAGCTAAAGCAGCTCGC", "THRa:RXRa (NR concentration 90 nM, RXRa partner concentration 90 nM)", "NO"),
    ("CGATCTAGGTCAAAGGACAGTGAAAGGCGACGTA", "THRa:RXRa (NR concentration 90 nM, RXRa partner concentration 90 nM)", "NO"),
    ("CGAACTAGGTCACCGGGACAGTGAAGAGGTTGGA", "THRa:RXRa (NR concentration 90 nM, RXRa partner concentration 90 nM)", "YES"),
    ("GATACAGAGTCAGCTAGAGGCCAGAGTATGGAAA", "THRa:RXRa (NR concentration 90 nM, RXRa partner concentration 90 nM)", "NO"),
    ("ATCGAAAGGTCGAAGGTCAGTATACCCACCCGAA", "THRa:RXRa (NR concentration 90 nM, RXRa partner concentration 90 nM)", "YES"),
    ("CTAACTAGGTCAAGGTCAAAGTCGGTTTGTGCCA", "THRa:RXRa (NR concentration 90 nM, RXRa partner concentration 90 nM)", "YES"),
    ("CGATCTAGGTCACCAGGACAGTGAAGAGGTTGGA", "THRa:RXRa (NR concentration 90 nM, RXRa partner concentration 90 nM)", "YES"),
    ("ATATGTAGCTTAAGGGTCATTCAGGTTGGTTCGC", "THRa:RXRa (NR concentration 90 nM, RXRa partner concentration 90 nM)", "YES"),
    ("TCGAGTAGGTTATGGGGGCATTCAGGGATGAAGA", "THRa:RXRa (NR concentration 90 nM, RXRa partner concentration 90 nM)", "YES"),
    ("ACTTACGGGTCAACGGGGTTATAGCACGCGTATA", "THRa:RXRa (NR concentration 90 nM, RXRa partner concentration 90 nM)", "YES"),
]

# credit: the supplement of paper PMC6555819
